B1: library; numbered along this chain (parent)
chain: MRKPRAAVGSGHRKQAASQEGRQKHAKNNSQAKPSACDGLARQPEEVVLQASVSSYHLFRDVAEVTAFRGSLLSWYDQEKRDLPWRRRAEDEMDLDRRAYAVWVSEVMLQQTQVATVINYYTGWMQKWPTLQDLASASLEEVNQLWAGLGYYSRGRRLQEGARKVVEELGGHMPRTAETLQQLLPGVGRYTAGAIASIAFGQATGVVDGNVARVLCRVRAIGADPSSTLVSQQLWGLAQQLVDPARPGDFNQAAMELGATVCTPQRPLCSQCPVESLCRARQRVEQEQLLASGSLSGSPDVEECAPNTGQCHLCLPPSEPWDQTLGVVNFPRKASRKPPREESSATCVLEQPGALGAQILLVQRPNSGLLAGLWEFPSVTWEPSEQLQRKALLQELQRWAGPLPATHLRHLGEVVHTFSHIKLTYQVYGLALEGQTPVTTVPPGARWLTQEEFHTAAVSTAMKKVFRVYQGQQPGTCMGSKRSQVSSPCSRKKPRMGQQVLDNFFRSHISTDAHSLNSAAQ

variants of: B1; test: 8OG:A repair function score (normalized; synonymous = 0, nonsense = -1) (normalized log-likelihood score); higher = more repair activity (WT-like); settings: with 8OG:A DNA repair reporter (GFP) in HEK-293 MUTYH KO cells;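 further: cells sorted at 72 h after reporter transfection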
Assay Endpoint: 8OG:A repair function score
Lab note: write the figure by itself, no unit.

Briefly, 8OG:A repair function score measured for K464S : -0.198

Form: variant = T424W ; 8OG:A repair function score = -0.204

Input E452M . Output 8OG:A repair function score: -0.205
